Cited source for all entries: ChEMBL document CHEMBL4196177

- Test system: Gamma-crystallin C (Homo sapiens), P07315 [G129C]
- Sequence (P07315 whole entry G129C): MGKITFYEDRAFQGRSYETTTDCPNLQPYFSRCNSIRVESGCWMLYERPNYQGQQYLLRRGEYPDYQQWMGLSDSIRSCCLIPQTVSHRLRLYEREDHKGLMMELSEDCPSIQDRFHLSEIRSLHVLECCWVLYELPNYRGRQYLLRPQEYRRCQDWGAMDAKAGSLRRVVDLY
- Assay Overview: Inhibition of gamma-crystallin C G129C mutant (unknown origin)-induced cytotoxicity in human HLE-B3 cells assessed as increase in cell viability at 0.04 to 4 uM incubated for 12 hrs by CCK8 assay
- Format: cell-based
Activity calls are given as the source filed them. No cut-off for these calls is given here.
Write down one outcome, taken from yes (1) = active, no (0) = inactive

Use the examples below as a reference point.
>>> class("C[C@H](CCCC(C)(C)O)[C@H]1CC[C@H]2[C@@H]3CC=C4C[C@@H](O)CC[C@]4(C)[C@H]3CC[C@]12C")
"no (0)"
>>> class("C[C@H](CCCC(C)(C)O)[C@H]1CC[C@@]2(C)C3=C(CC[C@]12C)[C@@]1(C)CCC(=O)C(C)(C)[C@@H]1CC3")
"yes (1)"

Pending compound:
Ask | Field: outcome | Entry: C[C@H](CCCC(C)(C)O)[C@H]1CC[C@@]2(C)C3=C(CC[C@]12C)[C@@]1(C)C[C@@H](F)[C@@H](O)C(C)(C)[C@@H]1CC3
Reply | yes (1)
